composite z-score: recorded values
- System: wheat germ agglutinin (Triticum aestivum), Alexa647-labelled
- measurementDescription: Alexa647-WGA lectin binding to printed small molecules – biochemical, small-molecule microarray, 635/667 nm fluorescence, artefact control for SMM control-protein annotation, profiling panel (AID 1140);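 also: score merges 667 nm feature emission with signal to noise over triplicate slides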
- conditionsUsed: WGA-A647 binding, 635 nm fluorescence, higher = more signal
// no unit string in output, number only

INSERT INTO results (smilesentry, quantitativeresult) VALUES
  ('COC(=O)c1c(CC[C@@H](CO)NC(=O)N[C@@H](C)Cn2cc(-c3ccccn3)nn2)oc(C(C)=O)c1C(=O)OC', 0.184),
  ('O=C1O[C@@H](c2ccccc2)[C@@H](c2ccccc2)N2[C@@H](c3ccc(OCCO)cc3)[C@]3(C(=O)Nc4ccc(C#CC5=CCCCC5)cc43)[C@@H](C(=O)NC[C@H](O)c3ccccc3)[C@H]12', 0.254);

Please examine the following record next.
Query :: Give the reported composite z-score for this compound. `COc1ccc([Si](C)(C)[C@@H]2[C@@H](CC(=O)N3Cc4ccccc4C[C@H]3CO)O[C@]3(C(=O)N(Cc4ccc(N5C(=O)c6cccc7cccc5c67)cc4)c4ccccc43)[C@H]2C)cc1`
Result :: 0.323
